Source: ChEMBL document CHEMBL4689842

- Tested on: HEK-293T
- test.description: Multiplex assay against HEK293T
- Type: toxicity, cell-based
- measurement.parameters: human, 24 h, 10 µM, compound concentration 10 uM, replicate 1
just bin them by Population Mitochondria Different-Phenotype (%): lo = under 20%, mid = from 20% up to 90%, hi = 90% and over

Tag the class for C=C1/C(=C\C=C2/CCC[C@]3(C)[C@@H]([C@H](C)/C=C/[C@H](C)C(C)C)CC[C@@H]23)C[C@@H](O)C[C@@H]1O
mid

Queued: C=CCn1c(=O)c2cnc(Nc3ccc(N4CCN(C)CC4)cc3)nc2n1-c1cccc(C(C)(C)O)n1
mid

O=C(Nc1ccc(-n2nc(-c3cccnc3)cc2C(F)(F)F)cn1)c1ccc(-c2ccccc2)c(F)c1 , same question.
mid

Likewise for CCCn1c(=O)c2[nH]c(-c3cnn(Cc4cccc(C(F)(F)F)c4)c3)nc2n(CC)c1=O ?
mid

Thanks! And COc1cc2ncnc(Nc3ccc(F)c(Cl)c3)c2cc1NC(=O)/C=C/CN1CCCCC1 [DACOMITINIB ANHYDROUS] ?
lo

Same for Cn1nc(C(F)(F)F)cc1-c1cnc(N2CCc3cc(S(=O)(=O)Nc4c(F)cc(Cl)cc4F)cc(N4CCCC4=O)c32)nc1
lo

Entry CN1C2CCC1CC(OC(c1ccc(F)cc1)c1ccc(F)cc1)C2.Cl (stereo not given) please
hi

What would you report for CCN1CCN(c2ccc(Nc3cc(N(C)C(=O)Nc4c(Cl)c(OC)cc(OC)c4Cl)ncn3)cc2)CC1 ?
lo

Again, but for COCC(=O)NC/C=C/c1ccc2ncnc(Nc3ccc(Oc4ccc(C)nc4)c(C)c3)c2c1
hi

What about this compound? CCc1cccc(CC)c1NC(=O)c1nn(C)c2c1CCc1cnc(Nc3ccc(N4CCN(C)CC4)cc3OC)nc1-2
lo

Entry to check: CCn1cc(-c2ccnc3[nH]c(-c4cccc(CN(C)C)c4)cc23)c(-c2ccc(NC(=O)N(C)C)cc2)n1
mid

Subsequent entry: Cl.O=c1c2cccn2c2ccccc2n1CCCN1CCC(c2ccc(Cl)cc2)CC1
hi

Next: CN1CCN(C(=O)C(C)(C)c2ccc(C(=O)Nc3cn4cc(-c5cc(C(C)(C)C)cc(C(C)(C)C)c5)ccc4n3)cc2)CC1
mid

What do you get for CCc1cccc(CC)c1NC(=O)c1nn(C)c2c1CCc1cnc(Nc3ccc(C(=O)NC4CCN(C)CC4)cc3OC(F)(F)F)nc1-2 ?
hi

* * *

Give Population Hoechst High Intensity Objects (%) for every item shown.
- Tested on: Fibroblast
- test.description: Multiplex assay against human fibroblast
- Type: toxicity, cell-based
- measurement.parameters: 48 h, 1 µM, compound concentration 1 uM, replicate 2
Give just the numeric value; % need not be written.

Fill blank: measured Population Hoechst High Intensity Objects (%) of the compound CN(C)C(=O)C(CCN1CCC(O)(c2ccc(Cl)cc2)CC1)(c1ccccc1)c1ccccc1.Cl [LOPERAMIDE HYDROCHLORIDE] is ____.
12

Check CN1CCC(=C2c3ccccc3CC(=O)c3sccc32)CC1.O=C(O)/C=C/C(=O)O [KETOTIFEN FUMARATE] too.
10

Same question, COc1cc(N2CCN(C)CC2)ccc1Nc1ncc2c(n1)N(C)c1ccccc1C(=O)N2C this time
7

What do you get for CCOC(=O)c1c(C)[nH]c2ccc3c(c12)CN1CCc2cc(OC)ccc2C1O3 (configuration not stated) ?
11

Now consider S=C(NCCCc1c[nH]cn1)NCCCN(Cc1ccc(Cl)c(Cl)c1)c1ccc(Br)cn1 and answer again.
21

And for Cc1ccc(C(=O)Nc2cccc(C(F)(F)F)c2)cc1Nc1nc(-c2cccnc2)nc2c1cnn2C ?
22

What do you have for CN1C2CCC1CC(OC(c1ccc(F)cc1)c1ccc(F)cc1)C2.Cl (configuration not stated) ?
11

Continue with CCCS(=O)(=O)c1nc(NC2CC2)cc(-c2ccc3c(ccn3C3CC(C)(C)NC(C)(C)C3)c2)n1
8

Item: CCN1CCN(Cc2ccc(Nc3ncc(F)c(-c4cc(F)c5nc(C)n(C(C)C)c5c4)n3)nc2)CC1.CS(=O)(=O)O
16

Try Cl.O=c1c2cccn2c2ccccc2n1CCCN1CCC(c2ccc(Cl)cc2)CC1 next.
11

Please do the same for O=C(Cc1ccc(-c2ccc(OCCN3CCOCC3)cc2)cn1)NCc1ccccc1 as well.
10

Now try CCc1cccc(CC)c1NC(=O)c1nn(C)c2c1CCc1cnc(Nc3ccc(C(=O)NC4CCN(C)CC4)cc3OC(F)(F)F)nc1-2 .
11

One more compound: O=C(Nc1ccc(-n2nc(-c3cccnc3)cc2C(F)(F)F)cn1)c1ccc(-c2ccccc2)c(F)c1
16

Try the compound Cc1cn(-c2cc(NC(=O)c3ccc(C)c(Nc4nccc(-c5cccnc5)n4)c3)cc(C(F)(F)F)c2)cn1
11

Follow-up item: O=C(Nc1ccc(Cl)cc1)Nc1cccc(-c2cccc(N3CCCC3)n2)c1
12

Try the compound CCOc1cc2ncc(C#N)c(Nc3ccc(OCc4ccccn4)c(Cl)c3)c2cc1NC(=O)/C=C/CN(C)C
12

Do the same for CCCn1c(=O)c2[nH]c(-c3cnn(Cc4cccc(C(F)(F)F)c4)c3)nc2n(CC)c1=O please
11

* * *

- System: Fibroblast
- test.description: Multiplex assay against human fibroblast
- Assay type: toxicity, cell-based
- measurement.parameters: 48 h, 10 µM, compound concentration 10 uM, replicate 1
recorded.metric: Population Mitochondria Different-Phenotype (%)
Numbers only; they are read as %.

// lookup Population Mitochondria Different-Phenotype (%) for Cc1cn(-c2cc(NC(=O)c3ccc(C)c(Nc4nccc(-c5cccnc5)n4)c3)cc(C(F)(F)F)c2)cn1
0

What do you have for COCC(=O)NC/C=C/c1ccc2ncnc(Nc3ccc(Oc4ccc(C)nc4)c(C)c3)c2c1 ?
41

Next compound: Cc1cc(C)c(S(=O)(=O)N(Cc2ccc(-c3cccc(S(C)(=O)=O)c3)cc2)Cc2ccc(C(F)(F)F)o2)c(C)c1
3

Then this compound: O=C(Nc1ccc(-n2nc(-c3cccnc3)cc2C(F)(F)F)cn1)c1ccc(-c2ccccc2)c(F)c1
14

What do you get for Cl.O=C(c1ccc(Nc2nccc(-c3cc4ccccc4s3)n2)cc1)N1CCC(N2CCCC2)CC1 ?
33

Lookup CCN1CCN(Cc2ccc(Nc3ncc(F)c(-c4cc(F)c5nc(C)n(C(C)C)c5c4)n3)nc2)CC1.CS(=O)(=O)O
5

Now this one: COc1cc(N2CCN(C)CC2)ccc1Nc1ncc2c(n1)N(C)c1ccccc1C(=O)N2C
12

Another compound to look at: CCCS(=O)(=O)c1nc(NC2CC2)cc(-c2ccc3c(ccn3C3CC(C)(C)NC(C)(C)C3)c2)n1
4

* * *

Provide the reported Population Pyknosed Nuclei (%) of each item.
- Tested on: Fibroblast
- test.description: Multiplex assay against human fibroblast
- Type: toxicity, cell-based
- measurement.parameters: 24 h, 1 µM, compound concentration 1 uM, replicate 2
I only need the number, in %, no unit after it.

Using the record for CCCS(=O)(=O)c1nc(NC2CC2)cc(-c2ccc3c(ccn3C3CC(C)(C)NC(C)(C)C3)c2)n1 , report its Population Pyknosed Nuclei (%).
18

Now this one: CCOC(=O)c1c(C)[nH]c2ccc3c(c12)CN1CCc2cc(OC)ccc2C1O3 (stereo not drawn)
14

Again, but for CCOc1cc(C(=O)N2CCC(N3CCN(C)CC3)CC2)ccc1Nc1ncc2c(n1)N(C1CCCC1)c1ccccc1C(=O)N2C
11

Would you mind doing Cc1cn(-c2cc(NC(=O)c3ccc(C)c(Nc4nccc(-c5cccnc5)n4)c3)cc(C(F)(F)F)c2)cn1 [NILOTINIB] as well?
5

Input O=C(Nc1ccc(Cl)cc1)Nc1cccc(-c2cccc(N3CCCC3)n2)c1
6

Same read-out for CN1CCN(C(=O)C(C)(C)c2ccc(C(=O)Nc3cn4cc(-c5cc(C(C)(C)C)cc(C(C)(C)C)c5)ccc4n3)cc2)CC1 [T3-CLK-N] ?
8

Proceed to CCNc1cc(N[C@H]2CC[C@H](O)CC2)nc(Nc2ccc3c(ccn3Cc3ccccc3)c2)n1
1

# iterate: Cl.O=C(c1ccc(Nc2nccc(-c3cc4ccccc4s3)n2)cc1)N1CCC(N2CCCC2)CC1
5

* * *

- Test system: U2OS
- test.description: Multiplex assay against U2OS
- Type: toxicity, cell-based
- measurement.parameters: human, 12 h, 1 µM, compound concentration 1 uM, replicate 2
Kindly state Population Healthy Nuclei (%) for each of the entries shown.
Numeric only. Scale: %

What value of Population Healthy Nuclei (%) has been recorded for this entry: CCCn1c(=O)c2[nH]c(-c3cnn(Cc4cccc(C(F)(F)F)c4)c3)nc2n(CC)c1=O
88

Also CN1CCN(C(=O)C(C)(C)c2ccc(C(=O)Nc3cn4cc(-c5cc(C(C)(C)C)cc(C(C)(C)C)c5)ccc4n3)cc2)CC1 , if possible.
86

Query COc1ccc(-c2ccc3c(N4CCOCC4)nc(N4C[C@@H](C)O[C@@H](C)C4)nc3n2)cc1CO next
83

What would you report for Cc1cc(C)c(S(=O)(=O)N(Cc2ccc(-c3cccc(S(C)(=O)=O)c3)cc2)Cc2ccc(C(F)(F)F)o2)c(C)c1 ?
80

Note, next up: Cl.O=c1c2cccn2c2ccccc2n1CCCN1CCC(c2ccc(Cl)cc2)CC1
73

Try O=C(Nc1ccc(-n2nc(-c3cccnc3)cc2C(F)(F)F)cn1)c1ccc(-c2ccccc2)c(F)c1 next.
85

What would you report for CN[C@@H]1C[C@H]2O[C@@](C)([C@@H]1OC)n1c3ccccc3c3c4c(c5c6ccccc6n2c5c31)C(=O)NC4 ?
3
